experiment: protein stability index of a GFP-peptide fusion (yeast GPS) (PSI 1-4); higher = more stable; sorted into four equal gates, so the index is relative within each strain; details: pdr5∆

sequence code: DTPEGEACGLVKNLALM [RET1]
protein stability index: 2.01

sequence code: KPVMEVTSSFFYRGNYT [FAS1]
protein stability index: 2.11

sequence code: INELTLLVQKRFKYAPG [RPS3]
protein stability index: 2.81

sequence code: ERHQAGKNQWFFSKLRF [RPL27A]
protein stability index: 3.24

sequence code: GKTYMGWWGHMGGPKQK [QCR8]
protein stability index: 1.79

sequence code: IDRPKHELSRAELEELE [SMD2]
protein stability index: 3.27

sequence code: PKNYSLHGLRSFYDAIF [YJL039C/NUP192]
protein stability index: 2.61
